human Smo (Homo sapiens (Human)): reported log10 of IC50 for various compounds.
Sequence (Q99835 181-787): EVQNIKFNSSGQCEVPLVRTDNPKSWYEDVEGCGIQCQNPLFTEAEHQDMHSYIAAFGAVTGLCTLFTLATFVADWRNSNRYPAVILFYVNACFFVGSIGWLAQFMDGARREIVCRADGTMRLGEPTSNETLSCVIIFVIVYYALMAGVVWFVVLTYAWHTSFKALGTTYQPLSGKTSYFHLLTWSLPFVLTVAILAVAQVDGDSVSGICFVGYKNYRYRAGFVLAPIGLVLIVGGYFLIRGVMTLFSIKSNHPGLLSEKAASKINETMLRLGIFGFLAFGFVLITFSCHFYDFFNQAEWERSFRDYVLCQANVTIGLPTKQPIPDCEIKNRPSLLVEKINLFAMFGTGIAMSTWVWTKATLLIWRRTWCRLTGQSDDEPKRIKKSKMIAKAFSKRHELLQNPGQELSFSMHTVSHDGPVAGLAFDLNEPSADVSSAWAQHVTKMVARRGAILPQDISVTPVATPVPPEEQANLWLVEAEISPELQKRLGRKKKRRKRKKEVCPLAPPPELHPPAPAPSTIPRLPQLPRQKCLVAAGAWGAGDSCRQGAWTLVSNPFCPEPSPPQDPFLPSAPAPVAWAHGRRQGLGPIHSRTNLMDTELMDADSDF
// stored as log10 of IC50 expressed in nM

Worked set:
Cc1cccnc1-c1cc(N2CCC(NS(C)(=O)=O)CC2)ncc1Cl = 1.27
Cc1cccnc1-c1cc(N2CCC(C(=O)NCCS(C)(=O)=O)CC2)ncc1Cl = 2.34
Cc1cc(F)cnc1-c1cc(N2CCC(NS(C)(=O)=O)CC2)ncc1Cl = 1.32
Cc1cnc(-c2cc(N3CCN(C(=O)CCO)CC3)ncc2Cl)c(C)c1 = 1.82
Cc1cccnc1-c1cc(N2CCC(C(=O)N3CCCC[C@H]3CO)CC2)ncc1Cl = 1.63
Cc1cccnc1-c1cc(N2CCC(OCC(C)C)CC2)ncc1Cl = 2.21
Cc1cc(Cl)cnc1-c1cc(N2CCC(NS(C)(=O)=O)CC2)ncc1Cl = 1.31
Cc1cccnc1-c1cc(N2CCC3(CC2)CN(C)C(=O)O3)ncc1Cl = 2.61

For human Smo (Homo sapiens (Human)), provide log10 of IC50 of "Cc1cnc(-c2cc(N3CCN(S(C)(=O)=O)CC3)ncc2Cl)c(C)c1" please. 1.56

Let us now turn to "Cc1ccc(-c2cc(N3CCC(NS(C)(=O)=O)CC3)ncc2Cl)nc1" 1.88

Same read-out for "CS(=O)(=O)CCC(=O)NC1CCN(c2ccc(Cl)c(-c3ccccn3)n2)CC1" ? 1.50

Record: "Cc1cccnc1-c1cc(N2CCC(CNCCS(C)(=O)=O)CC2)ncc1Cl" 2.01

"COc1ccccc1CNC(=O)C1CCN(c2cc(-c3ncccc3C)c(Cl)cn2)CC1" , same question. 2.21

// same read-out, input: "Cc1cc(F)cnc1-c1nc(N2CCC(NS(C)(=O)=O)CC2)ccc1Cl" 1.47

Query "Cc1cccnc1-c1cc(N2CCN(C(=O)C(C)C)CC2)ncc1Cl" next 2.11

Same question for "CS(=O)(=O)NC1CCN(c2cc(-c3ncccc3Cl)c(Cl)cn2)CC1" please. 1.51

Quick one: "Cc1cccnc1-c1cc(N2CCC(CNS(C)(=O)=O)CC2)ncc1Cl" 1.76

Reference for the values: patent US9056865B2
